- System: LG0703-F498-PDC complex spheroid growth
- TEST_METHOD_NOTES: Anticancer human tumor LG0703-F498-PDC patient-derived lung adenocarcinoma cell line growth inhibition [AhR]
- RUN_CONDITIONS: curve of first compound; second compound 3.16 µM
pIC50: −log10 of the molar value.
OBSERVABLE: pIC50

**Query** # query: pIC50 | item NS(=O)(=O)OCC1CC(n2ccc3c(NC4CCc5ccccc54)ncnc32)CC1O (centres undefined) + CC(CO)NC(=O)c1cc(-c2ccc(Cl)cc2)nn(-c2cnn(C)c2)c1=O | system: LG0703-F498-PDC complex spheroid growth
**Result** 6.21

**Query** Give LG0703-F498-PDC complex spheroid growth pIC50 for CCc1c2c(nc3ccc(O)cc13)-c1cc3c(c(=O)n1C2)COC(=O)[C@]3(O)CC + Cc1cncc(-c2nc(NCCc3c[nH]c4ccccc34)c3ncn(C(C)C)c3n2)c1
**Result** > 9.02

**Query** Recorded pIC50 for Nc1ccn(C2OC(CO)C(O)C2(F)F)c(=O)n1 (centres undefined) + CC(CO)NC(=O)c1cc(-c2ccc(Cl)cc2)nn(-c2cnn(C)c2)c1=O with LG0703-F498-PDC complex spheroid growth, please?
**Result** > 7.50

**Query** # returns recorded pIC50 (system: LG0703-F498-PDC complex spheroid growth) for CC(C)c1c(-c2ccccc2)nc2c(C#N)c[nH]n2c1=O + CC(CO)NC(=O)c1cc(-c2ccc(Cl)cc2)nn(-c2cnn(C)c2)c1=O
**Result** < 5.00

**Query** Report pIC50 for Nc1ncn(C2CC(O)C(CO)S2)c(=O)n1 (centres undefined) + CC(CO)NC(=O)c1cc(-c2ccc(Cl)cc2)nn(-c2cnn(C)c2)c1=O tested on LG0703-F498-PDC complex spheroid growth.
**Result** < 6.52

**Query** Value wanted: pIC50 (LG0703-F498-PDC complex spheroid growth) of entry COc1ccc([C@@H](O)c2cc(-c3ncnc4cc(N5CCOCC5)ccc34)c(F)cc2Cl)nn1 + Cc1cncc(-c2nc(NCCc3c[nH]c4ccccc34)c3ncn(C(C)C)c3n2)c1
**Result** > 7.50

**Query** Report pIC50 for CCN(c1cc(-c2ccc(CN3CCOCC3)cc2)cc(C(=O)NCc2c(C)cc(C)[nH]c2=O)c1C)C1CCOCC1 + Cc1ccccc1N=Nc1ccc(NC(=O)c2ccnn2C)c(C)c1 tested on LG0703-F498-PDC complex spheroid growth.
**Result** < 5.52

**Query** # get_value(readout= pIC50, system= LG0703-F498-PDC complex spheroid growth) for O=C(c1cc(Cc2n[nH]c(=O)c3ccccc23)ccc1F)N1CCN(C(=O)C2CC2)CC1 + CC(CO)NC(=O)c1cc(-c2ccc(Cl)cc2)nn(-c2cnn(C)c2)c1=O
**Result** < 5.00

**Query** API: value(readout=pIC50, system=LG0703-F498-PDC complex spheroid growth) for record O=C(C=Cn1cnc(-c2cc(C(F)(F)F)cc(C(F)(F)F)c2)n1)NNc1cnccn1 + Cc1ccccc1N=Nc1ccc(NC(=O)c2ccnn2C)c(C)c1
**Result** 7.07

###

- System: LG0703-F498-PDC complex spheroid growth
- TEST_METHOD_NOTES: Anticancer human tumor LG0703-F498-PDC cell line growth inhibition [AhR];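 also: luminescence taken as a proxy for viable cell amount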;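 as to viability, T/C: percent of DMSO vehicle control where 100% means growth equal to vehicle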
- RUN_CONDITIONS: second compound 1 µM; first compound 0.000316 µM; stronger effect = lower value
- Excerpt: Multicellular complex tumor spheroid response to aryl hydrocarbon receptor antagonists in combination with a variety of drugs and investigational agents in selected tumor cell lines […] Compounds. […] If the clinical Cmax for an agent had not been determined, the highest concentration tested was 10 microM (Table 1). […]
So I've got a bunch of compounds here, and I need their viability, T/C values.
Just the number please, in %, no unit attached.

**Query** Reported viability, T/C, compound Cn1ncnc1C1c2n[nH]c(=O)c3cc(F)cc(c23)NC1c1ccc(F)cc1 (stereo unspecified) + Cc1ccccc1N=Nc1ccc(NC(=O)c2ccnn2C)c(C)c1 : ____
**Result** 93.5

**Query** If you can, please state the reported viability, T/C value of CC[C@@]1(O)C(=O)OCc2c1cc1n(c2=O)Cc2cc3c(CN(C)C)c(O)ccc3nc2-1 + Cc1cncc(-c2nc(NCCc3c[nH]c4ccccc34)c3ncn(C(C)C)c3n2)c1 .
**Result** 97.5

**Query** For the compound CC[C@@]1(O)C(=O)OCc2c1cc1n(c2=O)Cc2cc3c(CN(C)C)c(O)ccc3nc2-1 + CC(CO)NC(=O)c1cc(-c2ccc(Cl)cc2)nn(-c2cnn(C)c2)c1=O , what viability, T/C is on record?
**Result** 80.8

**Query** Quick one: viability, T/C of Cn1ncnc1C1c2n[nH]c(=O)c3cc(F)cc(c23)NC1c1ccc(F)cc1 (stereo unspecified) + CC(CO)NC(=O)c1cc(-c2ccc(Cl)cc2)nn(-c2cnn(C)c2)c1=O ?
**Result** 76.7

**Query** For Cn1ncnc1C1c2n[nH]c(=O)c3cc(F)cc(c23)NC1c1ccc(F)cc1 (stereo unspecified) + Cc1cncc(-c2nc(NCCc3c[nH]c4ccccc34)c3ncn(C(C)C)c3n2)c1 , what is its reported viability, T/C?
**Result** 103

**Query** Fill in: viability, T/C of CC[C@@]1(O)C(=O)OCc2c1cc1n(c2=O)Cc2cc3c(CN(C)C)c(O)ccc3nc2-1 + Cc1ccccc1N=Nc1ccc(NC(=O)c2ccnn2C)c(C)c1 is ___
**Result** 93.9
